Assay Method Text: Toxicokinetics test in the satellite groups (UPLC-MS/MS of rat plasma)
Format: in vivo
Details: male, SD, rat, plasma, po, male rats, Day 28, middle dose (berberine 24.03, epiberberine 2.47, coptisine 2.47, palmatine 6.09, jatrorrhizine 0.93, columbamine 1.98 mg/kg)
Measured Property: Tmax (h)
State just the number; it will be interpreted in h.

INSERT INTO measurements (record_smiles, unit_name, quantitative_result) VALUES
  ('COc1cc2c(cc1O)CC[n+]1cc3c(OC)c(OC)ccc3cc1-2', 'h', 12);

Please report the recorded Tmax for COc1cc2c(cc1O)-c1cc3ccc(OC)c(OC)c3c[n+]1CC2 .
12

* * *

Assay Method Text: Toxicokinetics test in the satellite groups (UPLC-MS/MS of rat plasma)
Assay type: in vivo
Details: male, SD, rat, plasma, po, male rats, Day 28, middle dose (berberine 24.03, epiberberine 2.47, coptisine 2.47, palmatine 6.09, jatrorrhizine 0.93, columbamine 1.98 mg/kg); read-out: T1/2 mean (converted)
Measured Property: half-life

INSERT INTO assay_data (record_smiles, result) VALUES
  ('COc1cc2c(cc1O)-c1cc3ccc(OC)c(OC)c3c[n+]1CC2', '4.07 h');

In the following, a different compound is considered.
Requested read-out: half-life. Entry: COc1cc2c(cc1O)CC[n+]1cc3c(OC)c(OC)ccc3cc1-2
2.72 h

* * *

Assay Method Text: Toxicokinetics test in the satellite groups (UPLC-MS/MS of rat plasma)
Format: in vivo
Details: female, SD, rat, plasma, po, female rats, Day 28, highest dose (berberine 72.08, epiberberine 7.42, coptisine 7.42, palmatine 18.26, jatrorrhizine 2.80, columbamine 5.93 mg/kg); read-out: AUC0-t mean
Measured Property: AUC(0-t) (ng·h/mL)
Answer format: numeric, ng·h/mL implied, no suffix.

INSERT INTO measurements (record_smiles, unit_name, quantitative_result) VALUES
  ('COc1cc2c(cc1O)-c1cc3ccc(OC)c(OC)c3c[n+]1CC2', 'ng·h/mL', 12.2);

Okay, next one:
For the molecule COc1cc2c(cc1O)CC[n+]1cc3c(OC)c(OC)ccc3cc1-2 , what AUC(0-t) is on record?
11.4

* * *

Assay Method Text: Toxicokinetics test in the satellite groups (UPLC-MS/MS of rat plasma)
Assay type: in vivo
Details: female, SD, rat, plasma, po, female rats, Day 28, middle dose (berberine 24.03, epiberberine 2.47, coptisine 2.47, palmatine 6.09, jatrorrhizine 0.93, columbamine 1.98 mg/kg); read-out: AUC0-t mean
Measured Property: AUC(0-t)
Show the value, then the unit it is measured in.

INSERT INTO assay_data (record_smiles, result) VALUES
  ('COc1cc2c(cc1O)CC[n+]1cc3c(OC)c(OC)ccc3cc1-2', '3.87 ng·h/mL');

Quick one: AUC(0-t) for COc1cc2c(cc1O)-c1cc3ccc(OC)c(OC)c3c[n+]1CC2 ?
9.42 ng·h/mL

* * *

Assay Method Text: Toxicokinetics test in the satellite groups (UPLC-MS/MS of rat plasma)
Type: in vivo
Details: male, SD, rat, plasma, po, male rats, Day 1, highest dose (berberine 72.08, epiberberine 7.42, coptisine 7.42, palmatine 18.26, jatrorrhizine 2.80, columbamine 5.93 mg/kg); read-out: AUC0-t mean
Listing of entries alongside the reported AUC(0-t).

INSERT INTO assay_data (record_smiles, result) VALUES
  ('COc1cc2c(cc1O)CC[n+]1cc3c(OC)c(OC)ccc3cc1-2', '101 ng·h/mL');

Shifting focus to the molecule that follows.
Which measured AUC(0-t) value corresponds to COc1cc2c(cc1O)-c1cc3ccc(OC)c(OC)c3c[n+]1CC2 ?
276 ng·h/mL
